Each recorded value in this set is attributed to the supplement of paper PMC4862054.

Catalogue of molecules with associated normalised viability
System: CAL-120
Experiment: normalised viability (% of control), CellTiter-Blue; higher = more viable cells (about 100 = DMSO control)
Details: 10000 nM; incubation time: 72 h
Give the value; after it, write the unit.

Q: So what's the measured normalised viability for this one? O=C(O)C1(C(=O)O)CCC1.[NH2-].[NH2-].[Pt+2]
Result: 78.3%

Q: So what's the measured normalised viability for this one? C1CN1c1nc(N2CC2)nc(N2CC2)n1
Result: 98.7%

Q: So what's the measured normalised viability for this one? CCCS(=O)(=O)Nc1ccc(F)c(C(=O)c2c[nH]c3ncc(-c4ccc(Cl)cc4)cc23)c1F
Result: 71.7%

###

System: DU-4475
Assay: normalised response (% of control), CellTiter-Glo; higher = more viable cells (100 = DMSO, 0 = benzethonium chloride kill control)
Conditions: incubation time: 72 h
assay readout: normalised response (%)
A number alone suffices; assume %.

• CCN(CC)CCCC(C)Nc1c2ccc(Cl)cc2nc2ccc(OC)cc12 (stereo not drawn) [Mepacrine] (50 nM) = 96.1

Q: Any idea what normalised response came out for O=C(Cc1ccc(-c2ccc(OCCN3CCOCC3)cc2)cn1)NCc1ccccc1 [KX2-391] (1000 nM) on DU-4475?
Result: 45.6

Q: Any idea what normalised response came out for Cc1ccc(-c2cc(C(F)(F)F)nn2-c2ccc(S(N)(=O)=O)cc2)cc1 [Celecoxib] (10 nM) on DU-4475?
Result: 101

Q: Any idea what normalised response came out for C=CCc1cccc(/C=N/NC(=O)CN2CCN(Cc3ccccc3)CC2)c1O [PAC-1] (1 nM) on DU-4475?
Result: 100

Q: Any idea what normalised response came out for COc1cc2c(NC3CCN(C(C)C)CC3)nc(C3CCCCC3)nc2cc1OCCCN1CCCC1 [UNC0638] (1000 nM) on DU-4475?
Result: 92.1

Q: Any idea what normalised response came out for O=C(O)C1(C(=O)O)CCC1.[NH2-].[NH2-].[Pt+2] [Carboplatin] (10 nM) on DU-4475?
Result: 95.9

Q: Any idea what normalised response came out for C=CC(=O)Nc1cc2c(Nc3ccc(F)c(Cl)c3)ncnc2cc1OCCCN1CCOCC1 [Canertinib] (10 nM) on DU-4475?
Result: 107

Q: Any idea what normalised response came out for Nc1nc(F)nc2c1ncn2[C@@H]1O[C@H](CO)[C@@H](O)[C@@H]1O [Fludarabine] (1 nM) on DU-4475?
Result: 99.8

###

Tested on: CAL-148
Assay: normalised viability (% of control), CellTiter-Blue; higher = more viable cells (about 100 = DMSO control)
Details: 10 nM; incubation time: 72 h
assay readout: normalised viability (%)
A number alone suffices; assume %.

* Oc1ncc(N(CCCl)CCCl)c(O)n1 [Uracil mustard] | 95.8
* CCCCC(=O)OCC(=O)[C@]1(O)Cc2c(O)c3c(c(O)c2[C@@H](O[C@H]2C[C@H](NC(=O)C(F)(F)F)[C@H](O)[C@H](C)O2)C1)C(=O)c1c(OC)cccc1C3=O [Valrubicin] | 91.6
* COc1cc([C@@H]2c3cc4c(cc3[C@@H](O[C@@H]3O[C@@H]5CO[C@@H](c6cccs6)O[C@H]5[C@H](O)[C@H]3O)[C@H]3COC(=O)[C@H]23)OCO4)cc(OC)c1O [Teniposide] | 95.5
* CCc1cncnc1N1CCN(Cc2nc3ccc(C(F)(F)F)cc3[nH]2)CC1 | 107
* CCCS(=O)(=O)Nc1ccc(F)c(C(=O)c2c[nH]c3ncc(-c4ccc(Cl)cc4)cc23)c1F [Vemurafenib] | 98.1
* Cc1ccc(-c2cc(C(F)(F)F)nn2-c2ccc(S(N)(=O)=O)cc2)cc1 [Celecoxib] | 97.2

Consider the record given below.
Q: Any idea what normalised viability came out for N#Cc1ccc(C(c2ccc(C#N)cc2)n2cncn2)cc1 [Letrozole] on CAL-148?
Result: 87.8
